# protocol-details: Selectivity ratio of IC50 for human MRC5 cells to IC50 for human AGS cells
# Assay type: ADME, cell-based
# condition-description: MRC5 cells versus AGS cells, read-out: Ratio IC50
Kindly state selectivity ratio for each of the entries shown.

[
  {
    "compound": "COc1cc2c3c(ncc(Br)c3c1)-c1ccccc1C2=O",
    "selectivity ratio": 8.8
  },
  {
    "compound": "COc1cc2c3c(c1)C(=O)c1ccccc1C3=NCC2",
    "selectivity ratio": 13
  },
  {
    "compound": "COc1c([N+](=O)[O-])cc2c(c1[N+](=O)[O-])C(=O)c1ccccc1C2=O",
    "selectivity ratio": 1
  },
  {
    "compound": "COc1cc2c3c(nccc3c1[N+](=O)[O-])-c1ccccc1C2=O",
    "selectivity ratio": 2.3
  },
  {
    "compound": "COc1cc([C@@H]2c3cc4c(cc3[C@@H](O[C@@H]3O[C@@H]5CO[C@@H](C)O[C@H]5[C@H](O)[C@H]3O)[C@H]3COC(=O)[C@H]23)OCO4)cc(OC)c1O [ETOPOSIDE]",
    "selectivity ratio": 11
  },
  {
    "compound": "COc1cc2c3c(c1[N+](=O)[O-])CCN=C3c1ccccc1C2=O",
    "selectivity ratio": 2.1
  }
]

Report selectivity ratio for each item below.
1. COc1cc2c3c(c1O)C(=O)c1ccccc1C3=NCC2
2. O=C1c2ccccc2C2=NCCc3cccc1c32

Ans.
[11, 19]
